Give IC50 for every item shown.
Molecular target: DRB4*0101 (DRw53) (Homo sapiens, UniProt P01903+P13762, G164S)
Assay: biochemical
Where no end group is shown, it is not given here.
Numbers only, in nM.

primary-sequence: DWVMAIFGVNPTVAEGF [compound 114]
unit-name: nM
IC50: 571
--
primary-sequence: WKHMRLECAIYYKAR [compound 91]
unit-name: nM
IC50: 766

Here is the next item to consider.
Challenge: Reported IC50 for DRB4*0101 (DRw53) (Homo sapiens, UniProt P01903+P13762, G164S), given WKHIRLECVLMYKAR [compound 108] ?
Response given: 102

----------
Biological target: HLA A2402 (Homo sapiens, UniProt P04439, D101N/D140Y/D185E/E176V/E190D/F33S/G103R/G107R/I119L/I121M/I306V/K335N/L105A/L180Q/L300P/N151K/N90K/Q86E/Q94H/R106L/R138H/R89G/T104I/T345S/V100E/W191G/Y123F)
Assay: HLA class I competition binding assay using soluble HLA
pIC50: −log10 of the molar value. Where no end group is shown, it is not given here.
pIC50 of 8 or higher: y. Under 8: n.

Solved entries:
primary-sequence: VYGTTLEKL [compound 66]
group: n

primary-sequence: VFTFPHAFPF [compound 84]
group: n

primary-sequence: VVFIYIPLF [compound 64]
group: n

primary-sequence: VYQFAFKDL [compound 87]
group: y

primary-sequence: VYDFAFRDLCI [compound 20]
group: n

Then this sequence:
Challenge: Does the sequence VYVFCFLLPM [compound 43] have recorded pIC50 that is 8 or more?
Response given: n

----------
Target: HLA A1101 (Homo sapiens, UniProt P04439, A114D/D185E/E176A/F33Y/L180Q/S129P/T187R)
Experiment: HLA class I competition binding assay using soluble HLA
Where no end group is shown, it is not given here.
Give pIC50 for every item shown.
Numbers only, as −log10 of the molar value.

primary-sequence: AVMCRHYKR [compound 78]
system: HLA A1101 (Homo sapiens, UniProt P04439, A114D/D185E/E176A/F33Y/L180Q/S129P/T187R)
pIC50: 7.42
//
primary-sequence: SVYGETLEK [compound 83]
system: HLA A1101 (Homo sapiens, UniProt P04439, A114D/D185E/E176A/F33Y/L180Q/S129P/T187R)
pIC50: 8.02
//
primary-sequence: AATKYPLLK [compound 17]
system: HLA A1101 (Homo sapiens, UniProt P04439, A114D/D185E/E176A/F33Y/L180Q/S129P/T187R)
pIC50: 7.70
//
primary-sequence: STWHWTGCNK [compound 80]
system: HLA A1101 (Homo sapiens, UniProt P04439, A114D/D185E/E176A/F33Y/L180Q/S129P/T187R)
pIC50: 8.55
//
primary-sequence: SVICFVNSK [compound 16]
system: HLA A1101 (Homo sapiens, UniProt P04439, A114D/D185E/E176A/F33Y/L180Q/S129P/T187R)
pIC50: 8.66
//
primary-sequence: VVLLLVRYK [compound 12]
system: HLA A1101 (Homo sapiens, UniProt P04439, A114D/D185E/E176A/F33Y/L180Q/S129P/T187R)
pIC50: 8.39
//
primary-sequence: STAAALYWYR [compound 56]
system: HLA A1101 (Homo sapiens, UniProt P04439, A114D/D185E/E176A/F33Y/L180Q/S129P/T187R)
pIC50: 8.00
//
primary-sequence: FVVYRDSIPK [compound 36]
system: HLA A1101 (Homo sapiens, UniProt P04439, A114D/D185E/E176A/F33Y/L180Q/S129P/T187R)
pIC50: 5.60
//
primary-sequence: SVYGTTLER [compound 60]
system: HLA A1101 (Homo sapiens, UniProt P04439, A114D/D185E/E176A/F33Y/L180Q/S129P/T187R)
pIC50: 8.15

Challenge: Give its pIC50 value. Item: ATTPIIHLK [compound 58]
Response given: 8.92

Taken from patent US8969542B2.
